Listed here: items and their measured CC50.
System: PANC1
Experiment: cells
Details: Homo sapiens, PANC-1, read-out: LC50 PANC1
assay.readout: CC50

                                   compound  assay_readout  experimental_result
0  COC1=C(C)C(=O)C2=C(C1=O)C(CNC(=O)C(C)N)N1C(O)C3Cc4cc(C)c(OC)c(O)c4C(N3)C1C2 (stereo not drawn)           CC50              > 19 µM
1  COc1c(C)cc2c(c1O)C1C3Cc4cc(C)c(OC)c(O)c4C(CNC(=O)C(C)N)N3CC(C2)N1C (stereo not drawn) [Safracin P-22A]           CC50            > 19.6 µM
2  CCOC1=C(C)C(=O)C2=C(C1=O)C(CNC(=O)C(C)N)N1CC3Cc4cc(C)c(OCC)c(O)c4C(C1C2)N3C (stereo not drawn)           CC50              11.1 µM
